tested on: foxtail, giant (giant foxtail, Setaria faberii); experiment: Test E greenhouse herbicide test, pre- and postemergence; format: in vivo; conditions: Preemergence, 250 g ai/ha; visual, scale 0 no effect to 100 complete control
Excerpt: […]
Recorded measurements of Plant response rating, Foxtail, Giant, one per entry

{"molecule": "CC(=O)Oc1c(C)nn(C)c(=O)c1-c1c(C)sc2ccc(C)cc12 [Compound 25]", "Plant response rating, Foxtail, Giant": 100}
{"molecule": "Cc1cc(C)c2sc(C)c(-c3c(OC(=O)OCCCl)c(C)nn(C)c3=O)c2c1 [Compound 85]", "Plant response rating, Foxtail, Giant": 100}
{"molecule": "CCOC(=O)Oc1c(C)nn(C)c(=O)c1-c1c(C)sc2c(C)cc(C)cc12 [Compound 83]", "Plant response rating, Foxtail, Giant": 100}
{"molecule": "CCOC(=O)Oc1c(C)nn(C)c(=O)c1-c1c(C)sc2ccc(C)cc12 [Compound 82]", "Plant response rating, Foxtail, Giant": 95}
{"molecule": "CCC(=O)Oc1c(C)nn(C)c(=O)c1-c1c(C)sc2c(C)cc(C)cc12 [Compound 28]", "Plant response rating, Foxtail, Giant": 100}
{"molecule": "CCOC(=O)Oc1c(C)nn(C)c(=O)c1-c1c(CC)ccc2ccccc12 [Compound 37]", "Plant response rating, Foxtail, Giant": 90}

====

tested on: oat, wild (wild oat, Avena fatua); experiment: Test C greenhouse herbicide test, postemergence; format: in vivo; conditions: Postemergence, 250 g ai/ha; scale 0 to 100, 0 no effect, 100 complete control; 13 to 15 d

{"compound": "Cc1nn(C)c(=O)c(-c2cc(F)cc3ccccc23)c1OS(C)(=O)=O [Compound 115]", "Plant response rating, Oat, Wild": 90}
{"compound": "C#CCOC(=O)Oc1c(C)nn(C)c(=O)c1-c1c(C)sc2ccc(C)cc12 [Compound 87]", "Plant response rating, Oat, Wild": 90}
{"compound": "CCOC(=O)Oc1c(C)nn(C)c(=O)c1-c1c(CC)ccc2ccccc12 [Compound 37]", "Plant response rating, Oat, Wild": 90}
{"compound": "COc1nn(C)c(=O)c(-c2c(C)ccc3ccccc23)c1OC(C)=O [Compound 138]", "Plant response rating, Oat, Wild": 90}

====

test system: barnyardgrass (Echinochloa crus-galli); assay: Test B flooded paddy test; assay type: in vivo; conditions: 250 g ai/ha, Flood; visual rating on scale of 0 to 100 where 0 is no effect and 100 is complete control; 13 to 15 d after treatment
Recorded measurements of Plant response rating, Barnyardgrass, one per entry
observation_type: Plant response rating, Barnyardgrass

{"smiles_data": "Cc1nn(C)c(=O)c(-c2cccc3ccccc23)c1OCC(=O)c1ccccc1", "test_result": 0}
{"smiles_data": "CCOC(=O)Oc1c(C)nn(C)c(=O)c1-c1c(C)ccc2ccccc12", "test_result": 0}
{"smiles_data": "Cc1n[nH]c(=O)c(-c2cccc3ccccc23)c1O", "test_result": 0}
{"smiles_data": "Cc1cc(C)c2sc(C)c(-c3c(OC(=O)OCCCl)c(C)nn(C)c3=O)c2c1", "test_result": 50}
{"smiles_data": "Cc1nn(C)c(=O)c(-c2ccc(Cl)c3ccccc23)c1OS(=O)(=O)N(C)C", "test_result": 0}

====

system: oat, wild (wild oat, Avena fatua); assay: Test D controlled growth environment herbicide test, pre- and postemergence; assay type: in vivo; settings: postemergence, 62 g ai/ha; scale 0 to 100, 0 no effect, 100 complete control
observation_type: Plant response rating, Oat, Wild

{"smiles_data": "Cc1nn(C)c(=O)c(-c2c(C)sc3ccc(Cl)cc23)c1O", "observation_type": "Plant response rating, Oat, Wild", "test_result": 90}
{"smiles_data": "Cc1cc(C)c2sc(C)c(-c3c(OC(=O)OC(C)C)c(C)nn(C)c3=O)c2c1", "observation_type": "Plant response rating, Oat, Wild", "test_result": 98}
{"smiles_data": "COC(=O)Oc1c(C)nn(C)c(=O)c1-c1c(C)sc2c(C)cc(C)cc12", "observation_type": "Plant response rating, Oat, Wild", "test_result": 90}
